assay: In vivo pharmacokinetic study, intravenous; design: species or system male CD-1 mice; conditions: male, CD-1, mouse, plasma, iv, 1 mg/kg, footnote: t1/2 stability in plasma; text: half-life in mouse PK, intravenous
The entries below come with measured half-life values attached.
Give the value, in units of h, as a plain number.

Examples with answers:
- O=P(O)(O)CP(=O)(O)OC[C@H]1O[C@@H](n2ccc3c(-c4cccc5ccccc45)nc(F)nc32)[C@H](O)[C@@H]1O [14D.6]: 2.3
- O=P(O)(O)CP(=O)(O)OC[C@H]1O[C@@H](n2ccc3c(-c4ccc5ccccc5c4)nc(Cl)nc32)[C@H](O)[C@@H]1O: 0.122

Answer with reported half-life of O=P(O)(O)CP(=O)(O)OC[C@H]1O[C@@H](n2ccc3c(-c4ccc(F)c5ccccc45)nc(Cl)nc32)[C@H](O)[C@@H]1O
1.8

Answer with reported half-life of O=P(O)(O)CP(=O)(O)OC[C@H]1O[C@@H](n2ccc3c(-c4cccc5ccccc45)nc(Cl)nc32)[C@H](O)[C@@H]1O
2.1

---

assay: in vitro; conditions: human, plasma
The entries below come with measured half-life at 10 µM values attached.

Examples with answers:
• O=P(O)(O)CP(=O)(O)OC[C@H]1O[C@@H](n2ccc3c(-c4ccc5ccccc5c4)ncnc32)[C@@H](F)[C@@H]1O [34A.7] = > 2 h
• O=P(O)(O)CP(=O)(O)OC[C@H]1O[C@@H](n2ccc3c(-c4ccc(-c5ccccc5)cc4)ncnc32)[C@H](O)[C@@H]1O [4A.9] = > 2 h

Answer with reported half-life at 10 µM of Cc1nc(-c2ccc3ccccc3c2)c2ccn([C@@H]3O[C@H](COP(=O)(O)CP(=O)(O)O)[C@@H](O)[C@H]3O)c2n1 [18E.7]
> 2 h

---

assay: Microsomal stability assay, mouse liver microsomes; assay type: in vitro ADME; conditions: 10 μM
The entries below come with measured Mics (m) comp remaining 60 min values attached.
Give the value, in units of %, as a plain number.

• O=P(O)(O)CP(=O)(O)OC[C@H]1O[C@@H](n2ccc3c(-c4cccc5c4CCCC5)ncnc32)[C@@H](F)[C@@H]1O [34A.12] = 115
• O=P(O)(O)CP(=O)(O)OC[C@H]1O[C@@H](n2ccc3c(-c4cc5ccccc5[nH]4)nc(Cl)nc32)[C@H](O)[C@@H]1O = 72
• O=P(O)(O)CP(=O)(O)OC[C@H]1O[C@@H](n2ccc3c(-c4ccc5ncccc5c4)ncnc32)[C@H](O)[C@@H]1O = 105
• O=P(O)(O)CP(=O)(O)OC[C@H]1O[C@@H](n2ccc3c(-c4ccc5cc(F)ccc5c4)nc(Cl)nc32)[C@H](O)[C@@H]1O = 109
• COc1ccc2cc(-c3nc(Cl)nc4c3ccn4[C@@H]3O[C@H](COP(=O)(O)CP(=O)(O)O)[C@@H](O)[C@H]3O)ccc2c1 = 103
• O=P(O)(O)CP(=O)(O)OC[C@H]1O[C@@H](n2ccc3c(-c4ccc(F)c5ccccc45)ncnc32)[C@@H](F)[C@@H]1O [34A.23] = 116
• O=P(O)(O)CP(=O)(O)OC[C@H]1O[C@@H](n2ccc3c(-c4ccco4)nc(Cl)nc32)[C@H](O)[C@@H]1O = 106
• Cc1nc(-c2cccc3ccccc23)c2ccn([C@@H]3O[C@H](COP(=O)(O)CP(=O)(O)O)[C@@H](O)[C@H]3O)c2n1 [18E.6] = 95
• O=P(O)(O)CP(=O)(O)OC[C@H]1O[C@@H](n2ccc3c(-c4cccc5c4CCCC5)nc(Cl)nc32)[C@H](O)[C@@H]1O = 117
• O=P(O)(O)CP(=O)(O)OC[C@H]1O[C@@H](n2ccc3c(-c4ccc5ccccc5c4)ncnc32)[C@@H](F)[C@@H]1O [34A.7] = 90

Answer with reported Mics (m) comp remaining 60 min of O=P(O)(O)CP(=O)(O)OC[C@H]1O[C@@H](n2ccc3c(-c4ccc5cc(Cl)ccc5c4)nc(Cl)nc32)[C@H](O)[C@@H]1O
140

Answer with reported Mics (m) comp remaining 60 min of O=P(O)(O)CP(=O)(O)OC[C@H]1O[C@@H](n2ccc3c(-c4ccnc5ccccc45)ncnc32)[C@@H](F)[C@@H]1O [34A.28]
101

Answer with reported Mics (m) comp remaining 60 min of Cc1nc(-c2ccco2)c2ccn([C@@H]3O[C@H](COP(=O)(O)CP(=O)(O)O)[C@@H](O)[C@H]3O)c2n1 [18E.1]
96

Answer with reported Mics (m) comp remaining 60 min of Cc1nc(-c2cccc3c2CCCC3)c2ccn([C@@H]3O[C@H](COP(=O)(O)CP(=O)(O)O)[C@@H](O)[C@H]3O)c2n1 [18E.12]
106

Answer with reported Mics (m) comp remaining 60 min of Nc1nc(-c2cccc3ccccc23)c2ccn([C@@H]3O[C@H](COP(=O)(O)CP(=O)(O)O)[C@@H](O)[C@H]3O)c2n1 [11C.6]
102

Answer with reported Mics (m) comp remaining 60 min of O=P(O)(O)CP(=O)(O)OC[C@H]1O[C@@H](n2ccc3c(-c4ccc5cncnc5c4)ncnc32)[C@H](O)[C@@H]1O
101

Answer with reported Mics (m) comp remaining 60 min of O=P(O)(O)CP(=O)(O)OC[C@H]1O[C@@H](n2ccc3c(-c4cc(Br)c5ccccc5c4F)nc(Cl)nc32)[C@H](O)[C@@H]1O
113
